experiment: gradient 5% acetonitrile 3 min, to 50% in 2 min, to 85% in 15 min, held 3 min, 100 µL/min; details: column: Zorbax Extend-C18 2.1 x 50 mm; eluents: water / acetonitrile, 0.1% formic acid
Use RP-LC retention time to assign classes; range list: range 1 (below 700 s), range 2 (700 s to below 900 s), range 3 (900 s or more)

[
  {
    "COMPOUND": "Cc1ccc(NC(=O)N(C)CC2CCOCC2)cc1C",
    "GROUP": "range 2"
  }
]

Which category does the recorded RP-LC retention time put `CCN(CC)CCCNC(=O)Cn1c(=O)c2cccn2c2ccccc21` in?
range 1

Please answer likewise for `CCOc1ccc([C@H]2N(c3cc(C)on3)C(=O)[C@@H]3CCCN32)cc1`
range 2

Please answer likewise for `COc1ccccc1NC(=O)NCCCn1c(C(F)(F)F)nc2cccnc21`
range 2

Please answer likewise for CSc1cccc(NC(=O)NCC(c2cccnc2)c2cn(C)c3ccccc23)c1 (stereo unspecified)
range 2

Please answer likewise for `Cc1ccc(NC(=O)Cn2nc(N3CCOCC3)c3ccccc3c2=O)c(Cl)c1`
range 2

Please answer likewise for `CCN1C(=O)COc2ccc(-c3noc(C4CCN(C(C)=O)CC4)n3)cc21`
range 2

Please answer likewise for `Cn1c(=O)c2c(C(=O)NCC3CCN(Cc4ccc(Cl)cc4)CC3)cc(=O)n(C)c2n(C)c1=O`
range 1

----------
assay: gradient 5% acetonitrile 3 min, to 50% in 2 min, to 85% in 15 min, held 3 min, 100 µL/min; conditions: column: Zorbax Extend-C18 2.1 x 50 mm; eluents: water / acetonitrile, 0.1% formic acid
Classification field: Criterion met = RP-LC retention time at or over 800 s; Criterion not met = RP-LC retention time under 800 s.

// known answers, use as guide
[
  {
    "COMPOUND": "CCc1ccc2[nH]c3c(c(=O)c2c1)CN(CC(=O)NCc1ccc(OC)cc1)CC3",
    "GROUP": "Criterion not met"
  },
  {
    "COMPOUND": "CCc1ccc(CNC(=O)C2CCN(c3cncnc3N3CCN(C)CC3)CC2)cc1",
    "GROUP": "Criterion not met"
  },
  {
    "COMPOUND": "c1ccc(-n2nnnc2-c2cccc3ccccc23)cc1",
    "GROUP": "Criterion met"
  },
  {
    "COMPOUND": "COc1ccc(-c2c(C)noc2NC(C)=O)cc1S(=O)(=O)N1CCN(c2ccc(F)cc2)CC1",
    "GROUP": "Criterion met"
  },
  {
    "COMPOUND": "Cc1ccc(Oc2cccc(C(=O)NCCNc3cc(-n4cccn4)ncn3)c2)nn1",
    "GROUP": "Criterion not met"
  },
  {
    "COMPOUND": "Cc1cc(C)cc(Nc2c(-c3cccc(O)c3)nc3cnccn23)c1",
    "GROUP": "Criterion not met"
  },
  {
    "COMPOUND": "CN1C(=O)[C@H]2CN(Cc3ccc(N(C)C)cc3)C[C@H]2C1=O",
    "GROUP": "Criterion not met"
  }
]

Alright, here's another compound for you.
Please tell me: is the compound Fc1ccc(OCc2nc(C3CCNC3)no2)cc1 (centres undefined) at or over 800 s in terms of RP-LC retention time?
Criterion not met
